Listing: growth of selected molecules
Tested on: HCC-2998 colon
test-protocol: NCI-60 one-dose screen, 48 h (100 = growth as untreated, 0 = no growth, -100 = all killed)
condition: 10 µM unless noted
This is part of a sample that, as a whole, favours compounds with a hit. Of some 83,000 tested, about 20% had one in any assay.
assay-metric: growth (%)

1) Cc1[nH]c(C(=O)Nc2ccc(C(=O)NCCN)cc2OC(C)C)c(Cl)c1Cl    -41.7
2) O=C(Nc1ccc(-c2nc(-c3cccc(OCCN4CCOCC4)c3)c(-c3ccnc(Br)c3)[nH]2)cc1)c1ccccc1    11.3
3) COc1cc(/C=C2\C(=O)Nc3ccc(Br)cc32)cc(OC)c1OC    67.6
4) COc1ccc(-c2cnc3ccccc3n2)cc1    95.4
5) CCOC(=O)Nc1ccc(C(=O)/C=C/c2ccccc2)cc1    34.4
6) COc1ccc(OC)c(/C=C/c2nnc(Nc3ccccc3)o2)c1    102
7) CCS(=O)(=O)c1ncnc2nc[nH]c12    107
8) CC([C@H]1CCC2C3CCC4C[C@@H](NC=O)CC[C@]4(C)C3CC[C@@]21C)N(C)C (stereo partly specified)    -67.2
9) O=C(Cc1ccc2c(c1)OCCO2)Nc1nc2ccc(F)cc2s1    122
10) NCCCNc1nc2ccccc2c2c(=O)c3cc(F)cc(F)c3sc12    75.3
11) N#Cc1ccc(NC(=O)c2sc3nc4c(cc3c2N)C(=O)CCC4)cc1    99.2

---

System: ACHN renal
test-protocol: NCI-60 one-dose screen, 48 h
condition: 10 µM unless noted
About 83,000 compounds went through this panel and 20% of them were active in at least one assay; those are over-represented in the sample as a whole. The source made the active and inactive calls. The calls were made as follows: active = growth percent below 10; inactive = the rest.
Outcomes: Yes (active), No (inactive)

1. Cc1ncc(C(=O)Nc2ccc(CN3CCN(C)CC3)c(C(F)(F)F)c2)cc1C#Cc1ccc(N)nc1    Yes
2. CNc1ccc(Nc2cccc(C)c2)c2c1C(=O)c1ccccc1C2=O    No
3. Cc1ccc2c(n1)C(=O)C(Cl)=C(Nc1ccccc1C(C)C)C2=O    No
4. O=C1c2ccccc2NC(n2sc3ccccc3c2=O)N1c1ccccc1 (configuration not stated)    No
5. C[C@]12CC[C@@H]3c4cc(OC(F)F)c(OS(N)(=O)=O)cc4CC[C@H]3[C@@H]1CC[C@@H]2OS(N)(=O)=O    No
6. O=c1[nH][n+](-c2ccc(Br)cc2)no1    No
7. c1ccc(CO[C@H]2CO[C@H]3[C@@H]2OC[C@@H]3Oc2ccc(Nc3ncnc4ccsc34)cc2)cc1    No

---

Listing: growth of selected molecules
Tested on: SF-539 CNS
test-protocol: NCI-60 one-dose screen, 48 h (100 = growth as untreated, 0 = no growth, -100 = all killed)
condition: 10 µM unless noted
This is part of a sample that, as a whole, favours compounds with a hit. Of some 83,000 tested, about 20% had one in any assay.
assay-metric: growth (%)

1) O=C1c2cccc3cccc(c23)C(=O)N1Nc1nc(N2CCOCC2)nc(N2CCN(c3ccccc3)CC2)n1    50.2
2) C[C@H]1[C@H]2[C@H]3CC[C@@H]4[C@@]5(C)CC[C@H](O)C(C)(C)[C@@H]5CC[C@@]4(C)[C@]3(C)CC[C@]23CO[C@]1(C)[C@@H](C(=O)/C=C\c1cccnc1)C3    77.8
3) O=c1ccc(N=Nc2ccc([N+](=O)[O-])cc2)ccc1O    16.7
4) CCCCOc1nc2c(C)cccc2cc1-c1cc(-c2ccc(Cl)cc2)nc(-c2ccc(Cl)cc2)c1    96.8

---

System: NCI-H522 lung
test-protocol: NCI-60 one-dose screen, 48 h (100 = growth as untreated, 0 = no growth, -100 = all killed)
condition: 10 µM unless noted
This is part of a sample that, as a whole, favours compounds with a hit. Of some 83,000 tested, about 20% had one in any assay.
Threshold check on growth: strictly below 30% is yes (1); on or above 30% is no (0).

1. COc1cccc(-c2nc(-c3ccc(NC(=O)C(C)C)cc3)[nH]c2-c2ccnc(Br)c2)c1    yes (1)
2. CCCCCCn1c(-c2ccc(C(=O)O/N=C(\N)c3ccc(OC)cc3)cc2)nc(-c2ccccc2)c1-c1ccccc1    yes (1)
3. COc1cccc(Cc2nn3cc(-c4ccccc4)nc3s2)c1    no (0)
4. CC1CN(C2CCCCC2)C(=S)N(c2ccccc2)C1=O (stereo not drawn)    no (0)
5. Cc1cccc2c3c(sc12)C(c1ccc(F)cc1)C(C#N)=C(N)O3 (stereo not drawn)    yes (1)
6. O=C1CCC(C(=O)NCCNCCNC(=O)C2CCC(=O)N2)N1 (stereo not drawn)    no (0)
7. CCCCn1c(-c2ccc(-c3nc(-c4ccc(Cl)cc4)no3)cc2)nc(-c2ccccc2)c1-c1ccccc1    no (0)
8. Cc1ccc2sc3c(NCCN)nc4ccccc4c3c(=O)c2c1    no (0)
9. O=c1c2cc(F)ccc2sc2c(N3CCCCC3)nc3ccccc3c12    no (0)
10. COc1ccc(-c2c(C(=O)NS(C)(=O)=O)n(Cc3cccc(C(F)(F)F)c3)c3ccccc23)cc1    no (0)
11. COc1cccc(-c2nc(-c3ccc(NS(=O)(=O)c4ccccc4)cc3)[nH]c2-c2ccnc(Br)c2)c1    yes (1)
12. Cc1cccc2c3c(sc12)C(c1ccc(Cl)cc1)C(C#N)=C(N)O3 (stereo not drawn)    yes (1)
13. CCOC(=O)C1=C(N)Oc2c(sc3c(C)cccc23)C1c1ccc(OC)cc1 (stereo not drawn)    yes (1)
14. COc1ccc(NC(=O)n2nc(/C=C\c3ccc(O)c(OC)c3)cc2/C=C\c2ccc(O)c(OC)c2)cc1    yes (1)
15. COc1c(B(O)O)cc(C)cc1-c1nc2ccc3[nH]ncc3c2c2c1CCCC2    no (0)
16. CCCCn1c(-c2ccc(C(=O)O/N=C(\N)c3ccc(OC)cc3)cc2)nc(-c2ccccc2)c1-c1ccccc1    yes (1)
17. COc1cc(/C=C2\C(=O)Nc3ccc(Br)cc32)cc(OC)c1OC    no (0)
18. C=C(C)[C@@H]1CC[C@]2(N=C=O)CC[C@]3(C)[C@H](CC[C@@H]4[C@@]5(C)Cc6c([nH]c7ccccc67)C(C)(C)[C@@H]5CC[C@]43C)[C@@H]12    no (0)
19. S=C(c1cccs1)N1CCN(c2cccc(Cl)c2)CC1    no (0)
20. C=C1C(=O)O[C@H]2[C@H]1CC/C(COC(=O)CCC(=O)NCCOCCOCC(=O)Nc1ccc(OC)c(C(N)=O)c1O)=C\CC[C@@]1(C)O[C@@H]21    yes (1)
21. COc1ccc(OC)c(/C=C/c2nnc(Nc3ccccc3)o2)c1    no (0)
22. COc1ccc(-c2cc3c4c(nc5ccccc5c4c2)CC(c2cc(OC)c(OC)c(OC)c2)O3)cc1 (stereo not drawn)    no (0)
23. NCCNc1nc2ccccc2c2c(=O)c3cc(F)ccc3sc12    no (0)
24. O=c1c2cc(F)ccc2sc2c(NCCCNCCO)nc3ccccc3c12    yes (1)
25. COc1ccc(-c2conc2-c2ccccc2)cc1    yes (1)
26. COc1ccc(/C=C/c2c(C(=O)/C=C/c3ccc(Cl)cc3)c(C)nc3ccccc23)cc1    yes (1)
27. CCc1cccc2c3c(sc12)C(c1ccc(F)cc1)C(C#N)=C(N)O3 (stereo not drawn)    yes (1)
28. CCOC(=O)c1c(C)oc2ncnc(N3CCN(C(=O)COc4ccc(C(C)(C)C)cc4)CC3)c12    no (0)
29. Oc1ccc(Cl)cc1Cc1cc(Cl)cc(Cl)c1O    no (0)
30. Cc1cccc2c(=O)c3c(sc12)c(NCc1ccccc1)nc1ccccc13    no (0)
31. CCc1cccc2c1S/C(=C/c1ccc(OC)cc1)C2=O    no (0)
32. COc1c(N2CC3CCCN(C(C)=O)C3C2)c(F)cc2c(=O)c(C(=O)N[C@H]3C(O)[C@@H](O)C(CO)O[C@H]3O)cn(C3CC3)c12 (stereo partly drawn)    no (0)
33. CCN1C(=O)N(CC)C2Nn3c(s/c(=C4\C(=O)N(CC(C)C)c5ccccc54)c3=O)=NC21 (stereo not drawn)    yes (1)
34. COc1cccc(OC)c1C(=O)N[C@@H]1C(=O)N2[C@@H]1SC(C)(C)[C@@H]2C(=O)O    no (0)
35. CCOC(=O)c1cn2ncnc(Oc3ccc(NC(=O)NCCN4CCN(C)CC4)c(Cl)c3)c2c1C    no (0)
36. COc1ccc(S(=O)(=O)n2cc(C3OC(c4cc(OC)c(OC)c(OC)c4)=NN3C(C)=O)c3ccccc32)cc1OC (stereo not drawn)    no (0)
37. CC(=O)OC[C@H]1OC(Sc2sc(C(=O)c3ccc(Br)cc3)c(N)c2-c2nc3ccccc3s2)[C@H](OC(C)=O)[C@@H](OC(C)=O)[C@H]1OC(C)=O (stereo partly drawn)    no (0)
